These entries and their values trace back to patent US20110135657A1.

Target: T1, soluble human β-Klotho (Biacore, Example 8) (human, UniProt Q86Z14 53-996, limits assumed)
T1 construct: also called soluble β-Klotho
Experiment: Biacore competition binning; test antibody injected over soluble receptor captured on immobilized 24H11, 17D8 or 1A2.1
measured.quantity: binding result

binder	measured.quantity	result
18G1 (antibody, human IgG2, kappa, V domains shown, fully human monoclonal antibody; full chains H5/L4) VH: EVQLLESGGGLVQPGGSLRLSCAASRFTFSTYAMSWVRQAPGKGLEWVSGISGSGVSTHYADSVKGRFTISRDNSKNTLYLQMNSLRAEDTAVYYCAKSLIVVIVYALDHWGQGTLVTVSS VL: EIVLTQSPGTLSLSPGERATLSCRASQNFDSSYLAWYQQKPGQAPRLLIYGTSSRATGIPDRFSGIGSGTDFTLTINRLEPEDFAMYYCQQYGGSPLTFGGGTEVEIKR	binding result	binds
46D11 (antibody, human IgG2, kappa, V domains shown, fully human monoclonal antibody; full chains H13/L13) VH: QVTLKEAGPVLVKPTETLTLTCTVSGFSLSNARMGVNWIRQPPGKALEWLAHIFSNDEKSYSTSLKSRLTISKDTSKSQVVLTMTNMDPVDTATYYCARVRIAGDYYYYYGMDVWGQGTTVTVSS VL: DIQMTQSPSSVSASVGDRVTITCRASQGISIWLAWYQQKPGKAPKLLIYAASSLQSGVPSRFSGSGSGTDFTLTISSLQPEDFATYYCQQANDFPITFGQGTRLEIKR	binding result	binds
40D2 (antibody, human IgG2, kappa, V domains shown, fully human monoclonal antibody) VH: QVQLQESGPGLVKPSQTLSLTCTVSGGSISSGGYNWSWIRQHPGKGLEWIGNIYYSGSTYYNPSLKSRVTISVDTSKNQFSLKLRSVTAADTAVYYCARENIVVIPAAIFAGWFDPWGQGTLVTVSS VL: DFVMTQTPLSLSVTPGQPASISCKSSQSLLQSDGKTYLYWYLQKPGQPPHLLIYEVSNRFSGVPDRFSGSGSGTDFTLKISRVEAEDVGVYYCMQSIQLPRTFGQGTKVEIKR	binding result	binds
